test system: MS2 coat protein; test: apparent KD of MS2 coat protein; designed switch direction (-1 OFF switch, 1 ON switch): 1; higher = weaker reporter binding; settings: input ligand: none
measure: apparent KD of MS2 coat protein

{"sequence_input": "AUGAAUUUGCGAGGAUAUCGUUUGUUGAAGUUACGAGAAGGCGCUCACUUUACAUGAGGAUCACCCAUGUUUAUGAUAUAUGAU [JR_SSNG1_Sub074] (Eterna round: R96, puzzle: Same State NG 1)", "readout_value": "37.1 nM"}
{"sequence_input": "UUGAUUAGAAAUUAACAUGAGGAUCACCCAUGUAUUGGAUCAGAGGAUAUGCAUGUUUGAUUGUAGCAGAAGGCUGAUUGUGGA [JR_SSNG3_Sub028] (Eterna round: R96, puzzle: Same State NG 3)", "readout_value": "46.5 nM"}
{"sequence_input": "UGGAAGAAUUAAGGAUAUCGAGUACAUAUGUUUAACAUGAGGAUCACCCAUGUGGGUUGCGGUAUCGAGAAGGUAAAUUACAAG [Mat - same State NG 2 - JL mod - D61] (Eterna round: R96, puzzle: Same State NG 2)", "readout_value": "44 nM"}
{"sequence_input": "GAGAGAGGGCGAGGAUAUUCGGUGAUAAUGAUGGGAGAAGGCGCAGACAUGAGGAUCACCCAUGUGGGAAUAAUCCAGAGAGAG [Parity 13 - Jieux - Same State NG 1] (Eterna round: R96, puzzle: Same State NG 1)", "readout_value": "185 nM"}
{"sequence_input": "CUCAACAACACAGGAUAUCCAGGGAAAAGACCUGGAGAAGGGUGACCAACAUGAGGAUCACCCAUGUGACGGCUAGACCGUCUG [Isquce] (Eterna round: R96, puzzle: Same State NG 1)", "readout_value": "249 nM"}

---

Entries annotated with measured apparent KD of MS2 coat protein
tested on: MS2 coat protein; assay: apparent KD of MS2 coat protein, switch OFF state (with FMN for OFF switches, without FMN for ON switches); designed switch direction (-1 OFF switch, 1 ON switch): 1; higher = weaker reporter binding; conditions: FMN input: 0 or 200 uM; Eterna round: R93 (includes R88 designs)
measure: apparent KD of MS2 coat protein

{"sequence_input": "AGAAAACAUGAGGAUCACCCAUGUAGGAAUAUGGGAGGAUAUACAAAGACGAAAGUCAGAGUAGAAGGCCUAAAAA [salish99-SS1-086]", "measure": "apparent KD of MS2 coat protein", "readout_value": "92.3 nM"}
{"sequence_input": "GAUGACAUAGUACAGGAUAUAUGAAUAGUCACAUGAGGAUCACCCAUGUGCAUUUAUAUGCGCACAUAGAAGGGUGGUAGUGAUC [Mat - Same state - Malcolm Mod - D126]", "measure": "apparent KD of MS2 coat protein", "readout_value": "49.8 nM"}
{"sequence_input": "AGAAAAGAAAGUAAGGAUAUGCAUAAUAAAACAUGAGGAUCACCCAUGUUAAAAAAAAGAUCAUGGUAGAAGGUACAAAAGAAAG [SS2 M 36]", "measure": "apparent KD of MS2 coat protein", "readout_value": "12.3 nM"}

---

tested on: MS2 coat protein; assay: apparent KD of MS2 coat protein; designed switch direction (-1 OFF switch, 1 ON switch): -1; higher = weaker reporter binding; details: input ligand: FMN 200 uM
measure: apparent KD of MS2 coat protein (nM)

{"sequence_input": "AAUAAUCAUGUAGGAUAUGCGUGGCAAAGCUAUGCAGAAGGACAUGAGGAUCACCCAUGUUCUAGCGUCUGAGUACAGAUGCUA [Mat - Exclusion NG 1 - Mod of JL - D81] (Eterna round: R96, puzzle: Exclusion NG 1)", "readout_value": 399}
{"sequence_input": "UGCGAGUAAGGAUAUUCGCGACCGUUCACAAGAACGGUCGAGAAGAAGGUACUUGAGGAUCACCCAAGUCCUAG [Leonxegece] (Eterna round: R97, puzzle: Exclusion 4)", "readout_value": 103}
{"sequence_input": "UAUUUAUAUGAAGGAUAUACUUAACAUGAGGAUCACCCAUGUGGUGUUGUGAGUGAGUGAGUUUAGUAGAAGGUCAAUGAUUUU [JMF's solution 74] (Eterna round: R96, puzzle: Exclusion NG 2)", "readout_value": 870}
{"sequence_input": "ACAACAAGCUUUUUGUUCGUAGAACAUGAUGCUCUAGUCACAUGAGGAUCACCCAUGUCAGCCAGUUAGAUAGGUGA [JR_SV3TOV2_Sub064] (Eterna round: R96, puzzle: Sensor v3, turn-off variant 2)", "readout_value": 96.7}

---

Entries annotated with measured apparent KD of K4 kissing-loop reporter
test system: K4 kissing-loop RNA reporter; assay: apparent KD of K4 kissing-loop reporter; higher = weaker reporter binding; conditions: Eterna round: R107; input ligand: theophylline 20 uM;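 also: bound reporter read as fluorescence of individual clusters on recovered sequencing chips by microscopy, with normalized cluster intensities fitted with a binding model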
measure: apparent KD of K4 kissing-loop reporter

{"sequence_input": "CAGGCGACUAUCGAUACCAGAUGAUAUCGACUACUUGAGUGAUGUUCGAUUAAAGGCAUUAUCCCUUGGCAGCGACUGGACACAU [theeternabot_sameState_KL_Theo_B_24]", "measure": "apparent KD of K4 kissing-loop reporter", "readout_value": "659 nM"}
{"sequence_input": "UUUUGCUAGCGAAACGCUAGCUUAACAGAUACCAGUCGCGAAAGCGACCCUUGGCAGCUGCUGAGUGAUGUUCAGGUGAGAGUUA", "measure": "apparent KD of K4 kissing-loop reporter", "readout_value": "301 nM"}
{"sequence_input": "AGAUAGGGCUGAAGGAGCGUCGGAGAAGAGAAGAAGGAAUCCAGUGAUGUUGGAUAGAUCCGACAGGUAGGUCGCAGUUUUAUGA [hbob_SS_Arginine_B_2t139]", "measure": "apparent KD of K4 kissing-loop reporter", "readout_value": "178 nM"}

---

test system: MS2 coat protein; experiment: apparent KD of MS2 coat protein; higher = weaker reporter binding; settings: Eterna round: R107; input ligand: arginine 13.2 mM
Entries annotated with measured apparent KD of MS2 coat protein

{"sequence_input": "UAUCGACACUGAAGGAGCGAGAUGACAAACAUGAGGAUCACCCAUGUUAUGGGUUGUUAAUCUCAGGUAGGUCGCAGUGGUCGCA [Same State Arginine B GF 18]", "apparent KD of MS2 coat protein (nM)": 67.8}
{"sequence_input": "UGAGGGACCAGAAGGAGCGACAUGAGGAUCACCCAUGUCUCCCGUUAUGGGAGUUCUUUAGGUCAGGUAGGUCGCUGGUCCCUCA [#1 Exclusion - Arginine B Attempt #7 (Inspired by Omei)]", "apparent KD of MS2 coat protein (nM)": 25.6}
{"sequence_input": "UGCAUGAGGAUCGCCCGUGUCGAGCCGGUGCGAGGACCGGUACGGCCGCCACUCGAGACAUGAGGAUCACCCAUGUUGUGCGUGA [Exclusion Tryptophan A GF24]", "apparent KD of MS2 coat protein (nM)": 27.9}

---

system: MS2 coat protein; assay: apparent KD of MS2 coat protein, switch OFF state (with FMN for OFF switches, without FMN for ON switches); designed switch direction (-1 OFF switch, 1 ON switch): -1; higher = weaker reporter binding; details: FMN input: 0 or 200 uM; Eterna round: R93 (includes R88 designs)
Please enter TRUE where apparent KD of MS2 coat protein is greater than or equal to 50 nM, and FALSE where it is lower.

{"sequence_input": "AAAUAGACAGGAUAUGCAUGAAAAUUAAAAAAAAAAAAAAAACAUGAGGAUCACCCAUGUAGAAGGGUCAAAAA [Exclusion 2 - Omei 1]", "class": "TRUE"}
{"sequence_input": "AAGAAACAUGAGGAUCACCCAUGUCAGGAUAUCUAAAAGAAAAGAAAAGAAAGAAGAAAGAGAAGGGACAAAGG [Neferirkare]", "class": "TRUE"}
{"sequence_input": "AAGAAGGUAGGAUAUACAUGAGGAUCACCCAUGUAAAAGAAAGAAAAGGGAAAGAAAAGUAGAAGGACCAAGAA [Kheperkheperure Ay]", "class": "FALSE"}
{"sequence_input": "AGUCAUACAGGAUAUACAUGAGGAUCACCCAUGUAAAUCCUAAAAAGAAAAAAAUCAUGUAGAAGGGUAUGACA [EX3 224: Super Stable 24]", "class": "FALSE"}
{"sequence_input": "CUCUAGUGAGGAUAUGGAAGAAAAGAAAAGAAAGAAAAGAACCAGAAGGCACAUGAGGAUCACCCAUGUAAGAA [EteRNA is fun!]", "class": "TRUE"}
{"sequence_input": "AACACACAUGAGGAUCACCCAUGUAAGGAUAUGCAAGCAAGAAGAAAGAACAGAAAAAGCAGAAGGUACACACA [Amethyst 74]", "class": "FALSE"}
{"sequence_input": "CUCAUGUCAGGAUAUCAGUAGUAAAAAAAAAAAAUUACUACUGAGAAGGGACAUGAGGAUCACCCAUGUCCCAA [EX4 305: Super Stable 5]", "class": "FALSE"}
{"sequence_input": "GGUUGGCAAGGAUAUACAUGAGGAUCACCCAUGUGAGAGAAAAAAGUGAGAAAGAAAAGUAGAAGGUGUUGACG [salish99-ex3-75]", "class": "TRUE"}
{"sequence_input": "AAAAAACAUGAGGAUCACCCAUGUGAGGAUAUGAUGCGAAUAAAGAAAGAAGAAAGCAUCAGAAGGCACAUAUG [Mod of Disincluded 3 (little more stable fmn state)]", "class": "TRUE"}
{"sequence_input": "AAGAAACAUGAGGAUCACCCAUGUGAGGAUAUGGAAAAGAAAAGAAAAGAAAGAAGAAUCAGAAGGCACAAAGG [Meryhathor]", "class": "FALSE"}
{"sequence_input": "AGUCAGAGAGGAUAUACAUGAAAAAAAAAAGUAAGAUCCCUACAUGAGGAUCACCCAUGUAGAAGGCUCUGACA [Ex2 Design 137: Sub-opt 1]", "class": "FALSE"}
{"sequence_input": "AAGAAGUGAGGAUAUACAUGAACGAAAAAAAAAAAGAGCAUGUAGAAGGCACAUGAGGAUCACCCAUGUCAAAA [Georg Simmel]", "class": "FALSE"}

Just for reference, the supplement of paper PMC9170038 is where these values come from.
